target: Serine/threonine-protein kinase pim-1 (Homo sapiens); test: Homogeneous Time Resolved Fluorescence Assay (HTRF): The assay for the determination of Pim activity is based on the formation of phosphorylated biotinylated-BAD peptide at the Serine 112 residue (S112) and employs HTRF® (homogeneous time resolved fluorescence) technology to detect the product in a 96-well plate format. The phosphorylation of biotinylated-BAD (S112) peptide by full length recombinant Pim-1, Pim-2, or Pim-3 protein was detected with streptavidin:Allophycocyanin (APC) conjugate and a europium (Eu) labeled antibody directed against phosphorylated-BAD (S112). Excitation of Eu by a high energy laser light (337 nm) leads to a transfer of energy to the APC molecule, and results in an emission at 665 nm. The fluorescence is directly proportional to the amount of phosphorylated BAD peptide present in the reaction. […] A reference compound was included on each assay plate in order to validate that plate; on one plate of every assay run, two additional reference compounds were included. The final buffer conditions were as follows: 60 mM Hepes, pH 7.0, 0.05% BSA, 2 mM DTT. Incubations were carried out at RT (22° C.) for 2 h for Pim-1, 1 hour and 30 min for Pim-3, and 45 min for Pim-2. The reaction was stopped by the addition of 3 mM EDTA, and fluorescence was measured by an HTRF® Rubystar microplate reader.
Assay readout: pIC50
Give bare numbers, as −log10 of the molar value.

Query string: Request: pIC50, test system Serine/threonine-protein kinase pim-1 (Homo sapiens), entry `O=C1NCCc2[nH]c(-c3cccc4ccc(N[C@H]5CC[C@H](O)CC5)nc34)cc21`
Result string: 8.15

Values compiled from ChEMBL document CHEMBL3886836.
